tested on: 266 human PDZ domains (PDZome); experiment: Holdup assay (chromatographic retention, PDZome-binding profile, BI); parameters: key: binding intensity: 0.00 = no binding, 1.00 = maximal binding; conditions: PDZ domain PDZD7-1
parameter: BI
I only need the number, thanks.

# returns recorded BI (system: 266 human PDZ domains (PDZome)) for CC[C@H](C)[C@H](NC(=O)[C@H](CCC(N)=O)NC(=O)[C@@H](NC(=O)[C@H](Cc1c[nH]cn1)NC(=O)[C@H](CCC(N)=O)NC(=O)[C@H](CC(=O)O)NC(=O)[C@H](CCC(=O)O)NC(=O)[C@H](CC(=O)O)NC(=O)CCC(=O)NCCCOCCOCCOCCCNC(=O)CCCC[C@@H]1SC[C@@H]2NC(=O)N[C@@H]21)[C@@H](C)O)C(=O)N[C@H](C(=O)N[C@@H](CCCCN)C(=O)N[C@H](C(=O)O)C(C)C)[C@@H](C)O [PTEN_11] -0.032

###

*1 amine or outer side, *2 acyl side, *3 side chain or, on linkers, in order; H or OH if unused. Where a SMILES comes first, the peptide text is derived from it. The star is where a group is joined. X1 = O=C(CCCC[C@@H]1SC[C@@H]2NC(=O)N[C@@H]21)NCCCOCCOCCOCCCN*; Suc = O=C(CCC(=O)[*:2])[*:1]
// values below are pKd; system is GRASP-1 (Homo sapiens)
Sequence (Q7Z6J2 100-189): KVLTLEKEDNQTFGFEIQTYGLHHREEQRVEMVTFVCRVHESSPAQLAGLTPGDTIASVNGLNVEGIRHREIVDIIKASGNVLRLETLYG
Lab note — pKd values are minus log10 of concentrations in M.

Tell me the measured pKd of `CC[C@H](C)[C@H](NC(=O)[C@H](CCC(N)=O)NC(=O)[C@@H](NC(=O)[C@H](Cc1c[nH]cn1)NC(=O)[C@H](CCC(N)=O)NC(=O)[C@H](CC(=O)O)NC(=O)[C@H](CCC(=O)O)NC(=O)[C@H](CC(=O)O)NC(=O)CCC(=O)NCCCOCCOCCOCCCNC(=O)CCCC[C@@H]1SC[C@@H]2NC(=O)N[C@@H]21)[C@@H](C)O)C(=O)N[C@H](C(=O)N[C@@H](CCCCN)C(=O)N[C@H](C(=O)O)C(C)C)[C@@H](C)O` , please. 4.48

Please answer likewise for `CC[C@H](C)[C@H](NC(=O)[C@H](CCC(N)=O)NC(=O)[C@@H](NC(=O)[C@H](Cc1c[nH]cn1)NC(=O)[C@H](CCC(N)=O)NC(=O)[C@H](CC(=O)O)NC(=O)[C@H](CCC(=O)O)NC(=O)[C@H](CC(=O)O)NC(=O)CCC(=O)NCCCOCCOCCOCCCNC(=O)CCCC[C@@H]1SC[C@@H]2NC(=O)N[C@@H]21)[C@@H](C)O)C(=O)N[C@H](C(=O)N[C@@H](CCCCNC(C)=O)C(=O)N[C@H](C(=O)O)C(C)C)[C@@H](C)O` 5.10

Please answer likewise for CC[C@H](C)[C@H](NC(=O)[C@H](CCC(N)=O)NC(=O)[C@@H](NC(=O)[C@H](Cc1c[nH]cn1)NC(=O)[C@H](CCC(N)=O)NC(=O)[C@H](CC(=O)O)NC(=O)[C@H](CCC(=O)O)NC(=O)[C@H](CC(=O)O)NC(=O)CCC(=O)NCCCOCCOCCOCCCNC(=O)CCCC[C@@H]1SC[C@@H]2NC(=O)N[C@@H]21)[C@@H](C)O)C(=O)N[C@H](C(=O)N[C@@H](CCCNC(=N)N)C(=O)N[C@H](C(=O)O)C(C)C)[C@@H](C)O [PTEN_KR] ({X1-Suc}-DEDQHTQITRV-OH) 4.78

Please answer likewise for CC[C@H](C)[C@H](NC(=O)[C@H](CCC(N)=O)NC(=O)[C@@H](NC(=O)[C@H](Cc1c[nH]cn1)NC(=O)[C@H](CCC(N)=O)NC(=O)[C@H](CC(=O)O)NC(=O)[C@H](CCC(=O)O)NC(=O)[C@H](CC(=O)O)NC(=O)[C@H](Cc1ccccc1)NC(=O)[C@@H]1CCCN1C(=O)CCC(=O)NCCCOCCOCCOCCCNC(=O)CCCC[C@@H]1SC[C@@H]2NC(=O)N[C@@H]21)[C@@H](C)O)C(=O)N[C@H](C(=O)N[C@@H](CCCCN)C(=O)N[C@H](C(=O)O)C(C)C)[C@@H](C)O [PTEN_13] ({X1-Suc}-PFDEDQHTQITKV-OH) 4.91

###

target: MAGI3-6 (Homo sapiens); assay: Holdup assay, MAGI3-6; assay type: binding
Sequence (Q5TCQ9 whole entry): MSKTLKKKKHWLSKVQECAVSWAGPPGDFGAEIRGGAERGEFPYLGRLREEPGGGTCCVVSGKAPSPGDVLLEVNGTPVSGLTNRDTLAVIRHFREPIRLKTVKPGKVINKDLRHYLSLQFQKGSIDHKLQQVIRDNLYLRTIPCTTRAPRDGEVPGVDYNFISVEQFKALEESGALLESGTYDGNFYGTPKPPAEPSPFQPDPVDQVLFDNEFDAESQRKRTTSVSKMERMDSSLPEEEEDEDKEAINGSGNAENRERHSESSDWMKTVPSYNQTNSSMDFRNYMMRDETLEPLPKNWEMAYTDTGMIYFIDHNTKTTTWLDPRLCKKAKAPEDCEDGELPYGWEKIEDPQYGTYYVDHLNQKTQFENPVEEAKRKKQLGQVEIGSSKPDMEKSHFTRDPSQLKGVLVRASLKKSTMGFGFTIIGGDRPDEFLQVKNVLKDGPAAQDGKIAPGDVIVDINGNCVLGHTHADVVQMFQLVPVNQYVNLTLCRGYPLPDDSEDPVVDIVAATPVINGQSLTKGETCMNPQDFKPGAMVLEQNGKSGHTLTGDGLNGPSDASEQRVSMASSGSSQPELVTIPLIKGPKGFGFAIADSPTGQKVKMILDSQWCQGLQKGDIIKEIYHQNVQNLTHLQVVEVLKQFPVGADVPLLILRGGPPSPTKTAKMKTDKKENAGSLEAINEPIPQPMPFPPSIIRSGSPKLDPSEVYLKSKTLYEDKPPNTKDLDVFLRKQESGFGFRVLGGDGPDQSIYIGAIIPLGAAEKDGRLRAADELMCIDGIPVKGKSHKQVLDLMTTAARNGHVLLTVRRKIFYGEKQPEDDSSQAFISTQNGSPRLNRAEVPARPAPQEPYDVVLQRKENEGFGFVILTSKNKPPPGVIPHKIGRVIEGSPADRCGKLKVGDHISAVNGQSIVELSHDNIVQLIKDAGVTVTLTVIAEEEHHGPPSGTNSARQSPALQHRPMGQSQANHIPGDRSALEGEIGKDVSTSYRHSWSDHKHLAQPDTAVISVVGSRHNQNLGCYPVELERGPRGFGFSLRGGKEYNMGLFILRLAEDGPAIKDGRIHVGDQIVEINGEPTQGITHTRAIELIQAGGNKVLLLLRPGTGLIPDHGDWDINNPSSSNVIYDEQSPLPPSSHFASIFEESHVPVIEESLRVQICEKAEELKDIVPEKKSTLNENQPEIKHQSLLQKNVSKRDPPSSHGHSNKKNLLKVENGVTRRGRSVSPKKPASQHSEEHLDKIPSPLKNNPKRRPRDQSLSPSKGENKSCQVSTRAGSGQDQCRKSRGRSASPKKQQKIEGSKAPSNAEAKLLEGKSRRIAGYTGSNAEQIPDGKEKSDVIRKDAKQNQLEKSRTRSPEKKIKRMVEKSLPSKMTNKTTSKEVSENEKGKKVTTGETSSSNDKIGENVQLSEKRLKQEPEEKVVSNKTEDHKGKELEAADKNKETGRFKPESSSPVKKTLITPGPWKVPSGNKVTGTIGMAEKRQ
*1 amine or outer side, *2 acyl side, *3 side chain or, on linkers, in order; H or OH if unused. Where a SMILES comes first, the peptide text is derived from it. The star is where a group is joined. X1 = O=C(CCCC[C@@H]1SC[C@@H]2NC(=O)N[C@@H]21)NCCCOCCOCCOCCCN*; Suc = O=C(CCC(=O)[*:2])[*:1]
Give BI for every item shown.
I only need the number, thanks.

Tell me the measured BI of CC[C@H](C)[C@H](NC(=O)[C@H](CCC(N)=O)NC(=O)[C@@H](NC(=O)[C@H](Cc1c[nH]cn1)NC(=O)[C@H](CCC(N)=O)NC(=O)[C@H](CC(=O)O)NC(=O)[C@H](CCC(=O)O)NC(=O)[C@H](CC(=O)O)NC(=O)CCC(=O)NCCCOCCOCCOCCCNC(=O)CCCC[C@@H]1SC[C@@H]2NC(=O)N[C@@H]21)[C@@H](C)O)C(=O)N[C@H](C(=O)N[C@@H](CCCNC(=N)N)C(=O)N[C@H](C(=O)O)C(C)C)[C@@H](C)O [PTEN_KR] ({X1-Suc}-DEDQHTQITRV-OH) , please. 0.067

Please answer likewise for `CC[C@H](C)[C@H](NC(=O)[C@H](CCC(N)=O)NC(=O)[C@@H](NC(=O)[C@H](Cc1c[nH]cn1)NC(=O)[C@H](CCC(N)=O)NC(=O)[C@H](CC(=O)O)NC(=O)[C@H](CCC(=O)O)NC(=O)[C@H](CC(=O)O)NC(=O)CCC(=O)NCCCOCCOCCOCCCNC(=O)CCCC[C@@H]1SC[C@@H]2NC(=O)N[C@@H]21)[C@@H](C)O)C(=O)N[C@H](C(=O)N[C@@H](CCCCN)C(=O)N[C@H](C(=O)O)C(C)C)[C@@H](C)O` 0.071

Please answer likewise for `CC[C@H](C)[C@H](NC(=O)[C@H](CCC(N)=O)NC(=O)[C@@H](NC(=O)[C@H](Cc1c[nH]cn1)NC(=O)[C@H](CCC(N)=O)NC(=O)[C@H](CC(=O)O)NC(=O)[C@H](CCC(=O)O)NC(=O)[C@H](CC(=O)O)NC(=O)CCC(=O)NCCCOCCOCCOCCCNC(=O)CCCC[C@@H]1SC[C@@H]2NC(=O)N[C@@H]21)[C@@H](C)O)C(=O)N[C@H](C(=O)N[C@@H](CCCCNC(C)=O)C(=O)N[C@H](C(=O)O)C(C)C)[C@@H](C)O` 0.251

Please answer likewise for CC[C@H](C)[C@H](NC(=O)[C@H](CCC(N)=O)NC(=O)[C@@H](NC(=O)[C@H](Cc1c[nH]cn1)NC(=O)[C@H](CCC(N)=O)NC(=O)[C@H](CC(=O)O)NC(=O)[C@H](CCC(=O)O)NC(=O)[C@H](CC(=O)O)NC(=O)[C@H](Cc1ccccc1)NC(=O)[C@@H]1CCCN1C(=O)CCC(=O)NCCCOCCOCCOCCCNC(=O)CCCC[C@@H]1SC[C@@H]2NC(=O)N[C@@H]21)[C@@H](C)O)C(=O)N[C@H](C(=O)N[C@@H](CCCCN)C(=O)N[C@H](C(=O)O)C(C)C)[C@@H](C)O [PTEN_13] ({X1-Suc}-PFDEDQHTQITKV-OH) 0.044

###

test system: 266 human PDZ domains (PDZome); test: Holdup assay (chromatographic retention, PDZome-binding profile, BI); set-up: key: binding intensity: 0.00 = no binding, 1.00 = maximal binding; conditions: PDZ domain NHERF4-4
parameter: BI

Tell me the measured BI of `CC[C@H](C)[C@H](NC(=O)[C@H](CCC(N)=O)NC(=O)[C@@H](NC(=O)[C@H](Cc1c[nH]cn1)NC(=O)[C@H](CCC(N)=O)NC(=O)[C@H](CC(=O)O)NC(=O)[C@H](CCC(=O)O)NC(=O)[C@H](CC(=O)O)NC(=O)CCC(=O)NCCCOCCOCCOCCCNC(=O)CCCC[C@@H]1SC[C@@H]2NC(=O)N[C@@H]21)[C@@H](C)O)C(=O)N[C@H](C(=O)N[C@@H](CCCCNC(C)=O)C(=O)N[C@H](C(=O)O)C(C)C)[C@@H](C)O` , please. -0.03

###

system: 266 human PDZ domains (PDZome); test: Holdup assay (chromatographic retention, PDZome-binding profile, BI); set-up: key: binding intensity: 0.00 = no binding, 1.00 = maximal binding; conditions: PDZ domain NHERF4-4
*1 amine or outer side, *2 acyl side, *3 side chain or, on linkers, in order; H or OH if unused. Where a SMILES comes first, the peptide text is derived from it. The star is where a group is joined. X1 = O=C(CCCC[C@@H]1SC[C@@H]2NC(=O)N[C@@H]21)NCCCOCCOCCOCCCN*; Suc = O=C(CCC(=O)[*:2])[*:1]
parameter: BI
I only need the number, thanks.

Tell me the measured BI of CC[C@H](C)[C@H](NC(=O)[C@H](CCC(N)=O)NC(=O)[C@@H](NC(=O)[C@H](Cc1c[nH]cn1)NC(=O)[C@H](CCC(N)=O)NC(=O)[C@H](CC(=O)O)NC(=O)[C@H](CCC(=O)O)NC(=O)[C@H](CC(=O)O)NC(=O)CCC(=O)NCCCOCCOCCOCCCNC(=O)CCCC[C@@H]1SC[C@@H]2NC(=O)N[C@@H]21)[C@@H](C)O)C(=O)N[C@H](C(=O)N[C@@H](CCCCN)C(=O)N[C@H](C(=O)O)C(C)C)[C@@H](C)O [PTEN_11] , please. -0.01

Please answer likewise for CC[C@H](C)[C@H](NC(=O)[C@H](CCC(N)=O)NC(=O)[C@@H](NC(=O)[C@H](Cc1c[nH]cn1)NC(=O)[C@H](CCC(N)=O)NC(=O)[C@H](CC(=O)O)NC(=O)[C@H](CCC(=O)O)NC(=O)[C@H](CC(=O)O)NC(=O)CCC(=O)NCCCOCCOCCOCCCNC(=O)CCCC[C@@H]1SC[C@@H]2NC(=O)N[C@@H]21)[C@@H](C)O)C(=O)N[C@H](C(=O)N[C@@H](CCCNC(=N)N)C(=O)N[C@H](C(=O)O)C(C)C)[C@@H](C)O [PTEN_KR] ({X1-Suc}-DEDQHTQITRV-OH) 0.01

Please answer likewise for CC[C@H](C)[C@H](NC(=O)[C@H](CCC(N)=O)NC(=O)[C@@H](NC(=O)[C@H](Cc1c[nH]cn1)NC(=O)[C@H](CCC(N)=O)NC(=O)[C@H](CC(=O)O)NC(=O)[C@H](CCC(=O)O)NC(=O)[C@H](CC(=O)O)NC(=O)[C@H](Cc1ccccc1)NC(=O)[C@@H]1CCCN1C(=O)CCC(=O)NCCCOCCOCCOCCCNC(=O)CCCC[C@@H]1SC[C@@H]2NC(=O)N[C@@H]21)[C@@H](C)O)C(=O)N[C@H](C(=O)N[C@@H](CCCCN)C(=O)N[C@H](C(=O)O)C(C)C)[C@@H](C)O [PTEN_13] ({X1-Suc}-PFDEDQHTQITKV-OH) -0.036

Attribution: paper PMC7774954
